Read-out: sulfotransferase 2A1 (SULT2A1), SULT2A1 (gene 6822)
Method notes: LTEA_HepaRG_SULT2A1: Life Technologies and Expression Analysis (LTEA) Assay for sulfotransferase 2A1 (SULT2A1) using HepaRG (AID 2283531)
Settings: mRNA level, 48 h; actives raise or lower the signal
Calls of active or inactive are those of the source. Rule for the calls: active = hit-call score of the fitted dose curve at least 0.9, where 1 is the maximum; inactive = score below 0.9.
Possible outcomes: active, inactive

| Molecule | Qualitative label |
| --- | --- |
| CCC(C)(C)C(=O)O[C@H]1C[C@@H](C)C=C2C=C[C@H](C)[C@H](CC[C@@H]3C[C@@H](O)CC(=O)O3)[C@H]21 | inactive |
| O=C(CCCCCCCCc1cccnc1)N1CCC(C=C(c2ccccc2)c2ccccc2)CC1 | active |
| CC[C@H](C)C(=O)O[C@H]1C[C@@H](C)C=C2C=C[C@H](C)[C@H](CC[C@@H]3C[C@@H](O)CC(=O)O3)[C@H]21 | inactive |
| CC(=O)OCCC(C)C | inactive |
| CC(O)CN(CCN(CC(C)O)CC(C)O)CC(C)O (stereo not given) | inactive |
| CC(C)(O)c1coc(S(=O)(=O)NC(=O)Nc2c3c(cc4c2CCC4)CCC3)c1 | inactive |
| CCNc1ccccc1 | inactive |
| CN(C)c1ccc(N=NS(=O)(=O)O)cc1 | inactive |
| COc1ccc(-n2nc(C(F)F)cc2-c2ccc(S(C)=O)cc2)cc1 (stereo not given) | inactive |
| CC(=O)OC[C@H]1O[C@@](COC(C)=O)(O[C@H]2O[C@H](COC(C)=O)[C@@H](OC(C)=O)[C@H](OC(C)=O)[C@H]2OC(C)=O)[C@@H](OC(C)=O)[C@@H]1OC(C)=O | inactive |
